Readings of pIC50 for the listed compounds
- study.target: CDK6 (Homo sapiens, UniProt Q00534)
- Sequence (Q00534 whole entry): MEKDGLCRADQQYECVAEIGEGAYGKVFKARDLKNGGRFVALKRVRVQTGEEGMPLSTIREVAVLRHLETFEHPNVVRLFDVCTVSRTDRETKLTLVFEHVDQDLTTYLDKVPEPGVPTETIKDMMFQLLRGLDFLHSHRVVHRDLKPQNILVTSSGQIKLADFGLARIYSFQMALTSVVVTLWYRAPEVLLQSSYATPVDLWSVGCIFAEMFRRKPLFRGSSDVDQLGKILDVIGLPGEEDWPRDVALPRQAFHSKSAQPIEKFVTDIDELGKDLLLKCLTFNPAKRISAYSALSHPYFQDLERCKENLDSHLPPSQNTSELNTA
- Sequence (P24385 whole entry partner): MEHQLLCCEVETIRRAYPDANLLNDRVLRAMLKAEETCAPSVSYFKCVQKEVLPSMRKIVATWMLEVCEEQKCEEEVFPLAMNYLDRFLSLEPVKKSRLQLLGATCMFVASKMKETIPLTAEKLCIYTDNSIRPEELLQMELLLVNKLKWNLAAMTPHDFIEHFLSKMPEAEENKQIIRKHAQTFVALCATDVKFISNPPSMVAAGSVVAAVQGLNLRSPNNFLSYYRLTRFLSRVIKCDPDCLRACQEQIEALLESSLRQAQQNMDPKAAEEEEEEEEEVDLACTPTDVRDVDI
- experiment: In vitro kinase inhibition IC50, luminescence (ADP Glo), retinoblastoma substrate
- condition.description: read-out: CDK6/D1 IC50
- Procedure: IC50 values of compounds against CDK4 and CDK6 were determined by luminescence using retinoblastoma as substrate. […] Readings were taken at 15 min and 45 min incubation after detection reagent was added in a Synergy Neo Plate reader (BioTek, Winooski, Vt.) at single excitation of 340 nm and Dual emission at 495 nm and 520 nm respectively. […]
Recall that pIC50 is obtained by taking minus log10 of the concentration measured in molar.

Consider the reported pIC50 for these compounds:
[[record]]
compound = "N#Cc1cc2cnc(Nc3cc4c(cc3F)CNCC4)nc2n(C2CCCC2)c1=O [Compound No. 84]"
study_target = "CDK6 (Homo sapiens, UniProt Q00534)"
result_number = 6.94

[[record]]
compound = "CC1(C)NCCc2cc(Nc3ncc4cc(C#N)c(=O)n(C5CCCC5)c4n3)ccc21 [Compound No. 92]"
study_target = "CDK6 (Homo sapiens, UniProt Q00534)"
result_number = 8.22

[[record]]
compound = "N#Cc1cc2cnc(Nc3ccn(C4CCNCC4)c(=O)c3)nc2n(C2CCCC2)c1=O [Compound No. 60]"
study_target = "CDK6 (Homo sapiens, UniProt Q00534)"
result_number = 7.26


### Prompt Under CDK6 (Homo sapiens, UniProt Q00534): report pIC50 of CN(C)CCN1CCc2cc(Nc3ncc4cc(C#N)c(=O)n(C5CCCC5)c4n3)ccc2C1 [Compound No. 63] .
### Response 8.40

----------
- study.target: CDK1 (cyclin B) (Homo sapiens)
- Construct: purchased Invitrogen Life Technologies (assay service)
- Sequence (P06493 whole entry): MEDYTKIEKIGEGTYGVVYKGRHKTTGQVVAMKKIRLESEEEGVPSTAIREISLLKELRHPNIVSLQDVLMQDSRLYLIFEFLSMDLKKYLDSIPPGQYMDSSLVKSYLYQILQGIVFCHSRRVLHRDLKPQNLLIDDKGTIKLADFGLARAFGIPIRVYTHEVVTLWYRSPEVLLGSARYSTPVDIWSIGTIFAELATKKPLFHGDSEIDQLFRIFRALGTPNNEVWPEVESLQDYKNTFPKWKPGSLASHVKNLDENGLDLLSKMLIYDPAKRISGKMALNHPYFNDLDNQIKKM
- Sequence (P14635 whole entry partner): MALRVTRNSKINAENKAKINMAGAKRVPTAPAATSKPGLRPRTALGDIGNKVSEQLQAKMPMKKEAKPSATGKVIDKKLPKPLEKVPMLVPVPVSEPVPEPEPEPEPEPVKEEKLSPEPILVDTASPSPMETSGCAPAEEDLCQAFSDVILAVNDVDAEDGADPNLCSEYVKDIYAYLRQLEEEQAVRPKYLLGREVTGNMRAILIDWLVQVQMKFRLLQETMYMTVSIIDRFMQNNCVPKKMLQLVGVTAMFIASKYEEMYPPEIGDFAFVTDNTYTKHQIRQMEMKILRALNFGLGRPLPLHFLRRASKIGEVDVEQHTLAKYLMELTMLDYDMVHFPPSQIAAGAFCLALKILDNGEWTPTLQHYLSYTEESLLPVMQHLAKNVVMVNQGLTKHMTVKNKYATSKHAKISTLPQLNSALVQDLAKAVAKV
- experiment: Z'-LYTE kinase assay
- Type: biochemical
- condition.description: read-out: CDK1/B IC50
experimental.readout: pIC50
pIC50 here is simply -log10 of the concentration when that concentration is written in mol/L.

Some compounds with known pIC50 results, for comparison:
[[record]]
compound = "N#Cc1cc2cnc(Nc3ccc4c(c3)CCN(CCN)C4)nc2n(C2CCCC2)c1=O"
result_number = 5.76

[[record]]
compound = "N#Cc1cc2cnc(NC3CCCC3O)nc2n(C2CCCC2)c1=O (centres unmarked)"
result_number = 6.13

[[record]]
compound = "N#Cc1cc2cnc(Nc3ccc4c(c3)CCNC4)nc2n(C2CCCC2)c1=O"
result_number = 6.32


### Prompt Answer with reported pIC50 of CS(=O)(=O)N1CCC(Nc2ncc3cc(C#N)c(=O)n(C45CC(C4)C5)c3n2)CC1
### Response 7.06

### Prompt Read the entry CC1(C)NCCc2cc(Nc3ncc4cc(C#N)c(=O)n(C5CCCC5)c4n3)ccc21 and write its reported pIC50.
### Response 6.93

### Prompt Note down pIC50 recorded for CCC(C)n1c(=O)c(C#N)cc2cnc(NC3CCN(S(C)(=O)=O)CC3)nc21 (centres unmarked)
### Response 6.93

----------
- study.target: PI3Kδ kinase (Homo sapiens, UniProt O00329)
- Sequence (O00329 whole entry): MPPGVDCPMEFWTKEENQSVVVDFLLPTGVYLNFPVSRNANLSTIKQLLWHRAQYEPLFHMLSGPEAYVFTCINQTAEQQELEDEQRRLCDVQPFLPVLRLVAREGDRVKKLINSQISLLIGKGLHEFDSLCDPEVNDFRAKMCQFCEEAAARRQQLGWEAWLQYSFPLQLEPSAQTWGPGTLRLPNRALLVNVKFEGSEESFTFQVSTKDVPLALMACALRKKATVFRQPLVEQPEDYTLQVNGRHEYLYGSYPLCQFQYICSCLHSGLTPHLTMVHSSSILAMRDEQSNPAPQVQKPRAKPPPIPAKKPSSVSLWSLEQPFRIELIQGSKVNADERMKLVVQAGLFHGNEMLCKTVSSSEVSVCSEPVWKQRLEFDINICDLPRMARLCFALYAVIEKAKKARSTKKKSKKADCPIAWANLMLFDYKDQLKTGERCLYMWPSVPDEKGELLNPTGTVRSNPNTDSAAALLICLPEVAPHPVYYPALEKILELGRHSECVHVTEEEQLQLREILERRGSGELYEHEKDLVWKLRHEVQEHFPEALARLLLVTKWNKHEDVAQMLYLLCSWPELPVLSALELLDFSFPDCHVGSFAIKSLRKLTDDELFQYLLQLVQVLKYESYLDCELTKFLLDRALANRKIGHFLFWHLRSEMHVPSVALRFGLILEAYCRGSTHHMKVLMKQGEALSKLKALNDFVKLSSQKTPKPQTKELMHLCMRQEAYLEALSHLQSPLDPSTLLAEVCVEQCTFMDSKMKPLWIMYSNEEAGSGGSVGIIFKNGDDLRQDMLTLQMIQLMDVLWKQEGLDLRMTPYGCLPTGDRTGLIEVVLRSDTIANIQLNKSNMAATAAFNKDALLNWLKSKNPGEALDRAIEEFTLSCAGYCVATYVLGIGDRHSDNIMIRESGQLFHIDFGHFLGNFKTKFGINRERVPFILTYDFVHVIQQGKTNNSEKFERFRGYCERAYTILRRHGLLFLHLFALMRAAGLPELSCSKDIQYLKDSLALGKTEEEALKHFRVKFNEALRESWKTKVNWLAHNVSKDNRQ
- Sequence (P27986 whole entry partner): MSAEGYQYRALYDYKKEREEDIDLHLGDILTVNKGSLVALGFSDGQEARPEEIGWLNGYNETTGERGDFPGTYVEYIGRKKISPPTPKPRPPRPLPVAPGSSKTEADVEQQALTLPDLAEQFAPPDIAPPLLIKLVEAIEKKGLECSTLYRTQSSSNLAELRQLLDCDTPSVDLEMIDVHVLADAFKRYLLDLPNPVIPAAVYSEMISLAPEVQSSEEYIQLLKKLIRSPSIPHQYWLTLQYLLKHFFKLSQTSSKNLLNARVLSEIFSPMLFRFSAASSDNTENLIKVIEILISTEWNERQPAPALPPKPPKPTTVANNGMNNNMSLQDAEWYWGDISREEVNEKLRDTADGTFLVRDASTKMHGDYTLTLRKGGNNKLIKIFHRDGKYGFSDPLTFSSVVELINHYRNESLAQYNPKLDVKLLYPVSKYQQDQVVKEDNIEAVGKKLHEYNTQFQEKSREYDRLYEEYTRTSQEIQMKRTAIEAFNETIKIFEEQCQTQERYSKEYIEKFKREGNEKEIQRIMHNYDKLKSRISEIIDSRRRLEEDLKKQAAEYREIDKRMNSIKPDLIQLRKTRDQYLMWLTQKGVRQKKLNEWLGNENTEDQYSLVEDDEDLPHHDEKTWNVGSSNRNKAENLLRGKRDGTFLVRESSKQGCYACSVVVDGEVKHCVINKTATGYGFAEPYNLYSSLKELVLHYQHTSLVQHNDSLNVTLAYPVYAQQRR
experimental.readout: IC50 (nM)
Write the number in nM without appending the unit.

Solved cases below.
[[record]]
structure_smiles = "C[C@H]1CC[C@H](n2c(=O)c(C#N)cc3cnc(Nc4cccc(S(N)(=O)=O)c4)nc32)CC1"
study_target = "PI3Kδ kinase (Homo sapiens, UniProt O00329)"
result_number = 129

[[record]]
structure_smiles = "CN1CCN(c2ccc(Nc3ncc4cc(C#N)c(=O)n([C@H]5CC[C@H](C)CC5)c4n3)cc2)CC1"
study_target = "PI3Kδ kinase (Homo sapiens, UniProt O00329)"
result_number = 389


### Prompt Supply measured IC50 of N#Cc1cc2cnc(Nc3ccc(N4CCNCC4=O)c(F)c3)nc2n(C2CCCC2)c1=O in your reply.
### Response 249

### Prompt Give IC50 for the following molecule: CN1CCC(c2ccc(Nc3ncc4cc(C#N)c(=O)n(C5CCCC5)c4n3)cc2)CC1
### Response 416

### Prompt Identify the reported IC50 for the following entry. CN1CCc2ccc(Nc3ncc4cc(C#N)c(=O)n(C5CCCC5)c4n3)cc2C1
### Response 1230
